// values below are reported EC50
- tested system: human somatostatin receptor subtype 2 (Homo sapiens)
- Construct: expressed in transfected cells
- assay procedure: Functional assay for SSTR2 agonists (HTRF cAMP)
- Type: cell-based
- settings: CHO-K1 cells stably expressing human SST2; NKH477-stimulated cAMP; 20 min at 37 C; read-out: hSST2 cAMP Avg EC50
Kindly answer with a numeric value in nM, unit omitted.

molecule | observed measurement
CC[C@@H](C)[C@H]([C@H](CC(=O)N1CCCC1[C@@H](OC)[C@H](C)C(=O)N[C@@H](C)[C@H](O)c1ccccc1)OC)N(C)C(=O)[C@H](NC(=O)[C@@H](C(C)C)N(C)C(=O)OCc1ccc(NC(=O)[C@@H](C)NC(=O)[C@H](NC(=O)[C@@H](CCCO)NC(=O)CCOCCC(=O)NCCNc2ncc(-c3cc(C)cc(F)c3)c(N3CCC(N)CC3)c2-c2nc3ccc(Cl)cc3[nH]2)C(C)C)c(O[C@H]2O[C@@H](C(=O)O)[C@H](O)[C@@H](O)[C@@H]2O)c1)C(C)C (some centres unmarked) | 0.16

Shift focus to the following entry.
Short answer for "CC[C@H](C)[C@@H]([C@@H](CC(=O)N1CCC[C@H]1[C@H](OC)[C@@H](C)C(=O)N[C@H](C)[C@@H](O)c1ccccc1)OC)N(C)C(=O)[C@@H](NC(=O)[C@H](C(C)C)N(C)C(=O)OCc1ccc(NC(=O)[C@H](C)NC(=O)[C@@H](NC(=O)CCOCCN2CCC(C(=O)NCCNc3ncc(-c4cc(C)cc(F)c4)c(N4CCC(N)CC4)c3-c3nc4ccc(Cl)cc4[nH]3)CC2)C(C)C)c(O[C@@H]2O[C@H](C(=O)O)[C@@H](O)[C@H](O)[C@H]2O)c1)C(C)C" : EC50 was 0.28

----------
- tested system: SST2 (Homo sapiens, UniProt P30874)
- Construct: host or cells: PathHunter CHO-K1 SST2 cells
- Sequence (P30874 whole entry): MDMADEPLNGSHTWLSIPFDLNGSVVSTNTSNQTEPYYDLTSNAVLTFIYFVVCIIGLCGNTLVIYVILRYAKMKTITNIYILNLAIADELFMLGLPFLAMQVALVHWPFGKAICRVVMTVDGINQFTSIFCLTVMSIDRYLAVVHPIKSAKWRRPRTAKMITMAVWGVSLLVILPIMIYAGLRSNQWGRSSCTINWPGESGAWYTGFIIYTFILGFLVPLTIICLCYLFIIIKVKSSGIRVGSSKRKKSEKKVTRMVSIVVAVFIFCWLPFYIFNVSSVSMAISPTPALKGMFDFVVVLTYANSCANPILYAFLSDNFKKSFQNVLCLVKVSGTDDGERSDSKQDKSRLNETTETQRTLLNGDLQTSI
- assay procedure: PathHunter CHO-K1 SST2 Internalization Assay
- Assay type: cell-based
- settings: PathHunter CHO-K1 SST2 cells; 90 min at 37 C; luminescence; read-out: Internalization EC50
# EC50 listing for each entry below
Form entry: value (nM) — number only.

compound | tested system | measurement unit | EC50
CC[C@H](C)[C@@H]([C@@H](CC(=O)N1CCC[C@H]1[C@H](OC)[C@@H](C)C(=O)N[C@H](C)[C@@H](O)c1ccccc1)OC)N(C)C(=O)[C@@H](NC(=O)[C@H](C(C)C)N(C)C(=O)OCc1ccc(NC(=O)[C@H](CCCNC(N)=O)NC(=O)[C@@H](NC(=O)c2ccc(NC(=O)CCOCCOCCOCCOCCC(=O)NCCNc3ncc(-c4cc(C)cc(F)c4)c(N4CCC(N)CC4)c3-c3nc4ccc(Cl)cc4[nH]3)cc2O[C@@H]2OC(C(=O)O)[C@@H](O)[C@H](O)[C@H]2O)C(C)C)cc1)C(C)C (some centres unmarked) [Compound 183] | SST2 (Homo sapiens, UniProt P30874) | nM | 3.1

Proceeding to the next compound to report its EC50.
Field EC50 (entry CC[C@H](C)[C@@H]([C@@H](CC(=O)N1CCC[C@H]1[C@H](OC)[C@@H](C)C(=O)N[C@H](C)[C@@H](O)c1ccccc1)OC)N(C)C(=O)[C@@H](NC(=O)[C@H](C(C)C)N(C)C(=O)OCc1ccc(NC(=O)[C@H](CCCNC(N)=O)NC(=O)[C@@H](NS(=O)(=O)C[C@H](C)CC(=O)CCOCCC(=O)NCCNc2ncc(-c3cc(C)cc(F)c3)c(N3CCC(N)CC3)c2-c2nc3ccc(Cl)cc3[nH]2)C(C)C)c(O[C@@H]2C[C@H](C(=O)O)[C@@H](O)[C@H](O)[C@H]2O)c1)C(C)C [Compound 132] ) reads 3.2
